# TGT: T1, EsCas13d, nuclease-dead (Eubacterium siraeum, UniProt B0MS50, R295A;H300A;R849A;H854A)
# T1 sequence: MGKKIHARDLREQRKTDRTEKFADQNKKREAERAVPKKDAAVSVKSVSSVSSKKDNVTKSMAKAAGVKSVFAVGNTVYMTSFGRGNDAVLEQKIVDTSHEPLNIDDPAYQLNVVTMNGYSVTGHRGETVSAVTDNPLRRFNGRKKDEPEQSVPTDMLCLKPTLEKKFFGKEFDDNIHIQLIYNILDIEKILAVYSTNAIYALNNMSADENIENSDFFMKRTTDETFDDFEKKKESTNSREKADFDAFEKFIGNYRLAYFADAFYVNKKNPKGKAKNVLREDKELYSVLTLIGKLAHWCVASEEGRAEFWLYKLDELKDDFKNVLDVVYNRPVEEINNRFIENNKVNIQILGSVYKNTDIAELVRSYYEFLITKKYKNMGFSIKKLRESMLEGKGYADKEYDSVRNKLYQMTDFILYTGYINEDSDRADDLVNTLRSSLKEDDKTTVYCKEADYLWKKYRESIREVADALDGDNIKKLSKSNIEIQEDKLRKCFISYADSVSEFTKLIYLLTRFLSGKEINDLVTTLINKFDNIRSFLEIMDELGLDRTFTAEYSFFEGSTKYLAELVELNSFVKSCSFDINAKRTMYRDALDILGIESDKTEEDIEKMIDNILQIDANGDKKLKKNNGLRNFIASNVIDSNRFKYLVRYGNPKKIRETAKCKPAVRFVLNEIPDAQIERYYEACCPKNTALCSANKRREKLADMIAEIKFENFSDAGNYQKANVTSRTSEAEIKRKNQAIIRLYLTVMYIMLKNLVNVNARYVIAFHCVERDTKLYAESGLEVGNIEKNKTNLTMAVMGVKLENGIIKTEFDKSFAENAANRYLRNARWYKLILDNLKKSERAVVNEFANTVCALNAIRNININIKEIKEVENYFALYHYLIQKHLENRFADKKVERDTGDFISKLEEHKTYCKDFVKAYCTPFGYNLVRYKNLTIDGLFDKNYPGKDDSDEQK
# TEST SUMMARY: crRNA (strand 1, pre-loaded); Mg2+; 40 mM Tris-HCl pH 7.5, 150 mM NaCl, 6 mM MgCl2, 1 mM DTT, 0.1% Tween-20, 0.2 mg/ml BSA; 25 C; 10 min per concentration, then washed
# CONDITION PARAMETERS: tags: His6-TwinStrep-SUMO cleaved; N-terminal SNAP kept (SNAP-Surface 488); label: 3' end held by stalled T7 RNA polymerase
REPORTED METRIC: pKd
Remember the convention: pKd equals -log10 of concentration in molar.

[ask] Quick one: give measured pKd for target 1 MT 5'PFS GGG 3'PFS ACU (mixed) RNA 1: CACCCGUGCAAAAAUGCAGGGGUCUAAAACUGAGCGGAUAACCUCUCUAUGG RNA 2: GGGAAUGGAUCCACAUCUACGAAUUCGGGCCAUAGAGAGGUUAUCCGCUCAACUAGAUCGGAAGAGCACACGU
[reply] 7.85

Next binder, please.
[ask] Quick one: give measured pKd for target 1 MT 5'PFS GUA 3'PFS UCU (mixed) RNA 1: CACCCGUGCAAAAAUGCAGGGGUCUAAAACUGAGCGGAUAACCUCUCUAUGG RNA 2: GGGAAUGGAUCCACAUCUACGAAUUCGUACCAUAGAGAGGUUAUCCGCUCAUCUAGAUCGGAAGAGCACACGU
[reply] 8.08
